Reported OD450nm by item:
Target: HRgpA-6H (Porphyromonas gingivalis) (UniProt P28784)
Experiment: ELISA, FASEBA Fab on coated HRgpA-6H
Lab note: record the figure alone, no unit after it.

Here is how some binders turned out for OD450nm.
binder	OD450nm
KB001 mouse Fab VL T24N/G67D (Fab, V domains shown) VH: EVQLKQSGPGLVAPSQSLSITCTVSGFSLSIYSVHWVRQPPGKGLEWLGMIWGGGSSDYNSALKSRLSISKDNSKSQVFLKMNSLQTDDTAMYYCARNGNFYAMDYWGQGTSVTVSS VL: QIVLTQSPAIMSASLGERVTMTCNASSSVSSSFLHWYQQKPGSSPQLWIYSTSNLASGVPARFSGSDSGTSYSLTISSMEAEDAATYYCHQYHHSPYIYTFGGGTKLEIK	0.755
KB001 mouse Fab VL L34I (Fab, V domains shown) VH: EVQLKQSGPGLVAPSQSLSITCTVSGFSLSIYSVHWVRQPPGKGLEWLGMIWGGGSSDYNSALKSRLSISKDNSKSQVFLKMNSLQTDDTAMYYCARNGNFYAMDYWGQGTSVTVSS VL: QIVLTQSPAIMSASLGERVTMTCTASSSVSSSFIHWYQQKPGSSPQLWIYSTSNLASGVPARFSGSGSGTSYSLTISSMEAEDAATYYCHQYHHSPYIYTFGGGTKLEIK	0.67

Request: Sample KB001 mouse Fab VL L55K (Fab, V domains shown) VH: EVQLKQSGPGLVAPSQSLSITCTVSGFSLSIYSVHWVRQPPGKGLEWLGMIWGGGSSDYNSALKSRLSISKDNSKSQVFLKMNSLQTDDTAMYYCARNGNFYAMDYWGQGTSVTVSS VL: QIVLTQSPAIMSASLGERVTMTCTASSSVSSSFLHWYQQKPGSSPQLWIYSTSNKASGVPARFSGSGSGTSYSLTISSMEAEDAATYYCHQYHHSPYIYTFGGGTKLEIK — what was its OD450nm?
Result: 0.769

Source listed as patent US20230365662A1.
